# Lookup of reported IC50 at 72 h keyed by entry
experiment notes: Nephrotoxicity assay: in vitro cytotoxicity of HK-2 cells by CCK-8 assay
Format: cell-based
condition context: human, HK-2 cells (human renal), 72 h incubation with drug-containing medium
Bridge positions count the residues as written; N and C are the ends. Square brackets hold non-standard residues; d marks the D form. Peptide text beside a SMILES is read from it. * marks the point of attachment. Dab(CH2SO3H) = N[C@@H](CCNCS(=O)(=O)O)C(=O)O; Heptanoyl(6-Me) = CC(C)CCCCC(=O)*; X1 = CC[C@H](C)CCCCC(=O)*; Octanoyl = CCCCCCCC(=O)*; Orn = NCCC[C@H](N)C(=O)O; dDap = NC[C@@H](N)C(=O)O; Dab = NCC[C@H](N)C(=O)O; Dap = NC[C@H](N)C(=O)O

Use these answered entries as a reference point.
CC[C@H](C)CCCCC(=O)N[C@@H](CCN)C(=O)N[C@H](C(=O)N[C@H](CN)C(=O)N[C@H]1CCNC(=O)[C@H]([C@@H](C)O)NC(=O)[C@H](CCN)NC(=O)[C@H](CCN)NC(=O)[C@H]([C@@H](C)O)NC(=O)[C@H](Cc2ccccc2)NC(=O)[C@H](CCN)NC1=O)[C@@H](C)O [Compound 101] (X1-[Dab]T[dDap][Dab][Dab]FT[Dab][Dab]T; lactam 4-C): > 500 µg/mL
CC(C)CCCCC(=O)N[C@@H](CCN)C(=O)N[C@H](C(=O)N[C@H](CO)C(=O)N[C@H]1CCNC(=O)[C@H]([C@@H](C)O)NC(=O)[C@H](CCNCS(=O)(=O)O)NC(=O)[C@H](CCN)NC(=O)[C@H]([C@@H](C)O)NC(=O)[C@@H](Cc2ccccc2)NC(=O)[C@H](CCN)NC1=O)[C@@H](C)O [Compound 111] ({Heptanoyl(6-Me)}-[Dab]T[dS][Dab][Dab][dF]T[Dab][Dab(CH2SO3H)]T; lactam 4-C): > 500 µg/mL
CC(C)CCCCC(=O)N[C@@H](CCN)C(=O)N[C@H](C(=O)N[C@@H](CN)C(=O)N[C@H]1CCNC(=O)[C@H]([C@@H](C)O)NC(=O)[C@H](CCN)NC(=O)[C@H](CCN)NC(=O)[C@H]([C@@H](C)O)NC(=O)[C@@H](Cc2ccccc2)NC(=O)[C@H](CCN)NC1=O)[C@@H](C)O [Compound 7] ({Heptanoyl(6-Me)}-[Dab]T[Dap][Dab][Dab][dF]T[Dab][Dab]T; lactam 4-C): > 500 µg/mL

# lookup: IC50 at 72 h of CC(C)CCCCC(=O)N[C@@H](CCN)C(=O)N[C@H](C(=O)N[C@@H](CCCN)C(=O)N[C@H]1CCNC(=O)[C@H]([C@@H](C)O)NC(=O)[C@H](CCN)NC(=O)[C@H](CCN)NC(=O)[C@H](CC(C)C)NC(=O)[C@@H](Cc2ccccc2)NC(=O)[C@H](CCN)NC1=O)[C@@H](C)O [Compound 47] ({Heptanoyl(6-Me)}-[Dab]T[Orn][Dab][Dab][dF]L[Dab][Dab]T; lactam 4-C)
358 µg/mL

Also check CCCCCCCC(=O)N[C@@H](CN)C(=O)N[C@H](C(=O)N[C@H](CO)C(=O)N[C@H]1CCNC(=O)[C@H]([C@@H](C)O)NC(=O)[C@H](CCN)NC(=O)[C@H](CCN)NC(=O)[C@H]([C@@H](C)O)NC(=O)[C@@H](Cc2ccccc2)NC(=O)[C@H](CCN)NC1=O)[C@@H](C)O [Compound 53] (Octanoyl-[Dap]T[dS][Dab][Dab][dF]T[Dab][Dab]T; lactam 4-C)
> 500 µg/mL
